- MEASURED ON: Histone deacetylase 1 (Homo sapiens, UniProt Q13547)
- Sequence (Q13547 whole entry): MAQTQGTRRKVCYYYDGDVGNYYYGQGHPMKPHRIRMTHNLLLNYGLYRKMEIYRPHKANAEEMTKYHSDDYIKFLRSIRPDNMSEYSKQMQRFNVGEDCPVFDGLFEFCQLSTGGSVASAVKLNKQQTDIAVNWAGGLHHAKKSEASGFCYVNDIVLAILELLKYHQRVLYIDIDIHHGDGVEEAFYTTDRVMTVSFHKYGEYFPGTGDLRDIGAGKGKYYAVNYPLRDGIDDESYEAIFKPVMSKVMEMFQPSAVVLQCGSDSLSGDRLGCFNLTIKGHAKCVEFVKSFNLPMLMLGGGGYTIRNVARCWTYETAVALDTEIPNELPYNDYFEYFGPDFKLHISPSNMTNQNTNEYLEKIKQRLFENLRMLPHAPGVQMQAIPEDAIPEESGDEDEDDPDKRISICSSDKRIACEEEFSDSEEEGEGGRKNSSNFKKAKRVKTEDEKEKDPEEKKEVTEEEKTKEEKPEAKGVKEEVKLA
- ASSAY SETUP: Sf9, dose 100.0 nM, time 15.0 min
Reported inhibition is given for each of the following compounds.
Please give a number only; it is taken to be in %.

Worked cases, answers included:
[[record]]
compound_structure = "Cc1ccc(Nc2ncc(Cl)c(Nc3ccccc3S(=O)(=O)C(C)C)n2)cc1NC(=O)CCCCC(=O)NO"
measured_endpoint = "inhibition"
reported_measurement = 39

[[record]]
compound_structure = "Cc1cc(Nc2ncc(Cl)c(Nc3ccccc3S(=O)(=O)C(C)C)n2)ccc1C(=O)NCCCCCCC(=O)NO"
measured_endpoint = "inhibition"
reported_measurement = 78

[[record]]
compound_structure = "CC(C)S(=O)(=O)c1ccccc1Nc1nc(Nc2cccc(NC(=O)CCCCCC(=O)NO)c2)ncc1Cl"
measured_endpoint = "inhibition"
reported_measurement = 86

[[record]]
compound_structure = "CC(C)S(=O)(=O)c1ccccc1Nc1nc(Nc2ccc(C(=O)NCCCCCC(=O)NO)c(Cl)c2)ncc1Cl"
measured_endpoint = "inhibition"
reported_measurement = 93

[[record]]
compound_structure = "Cc1cc(Nc2ncc(Cl)c(Nc3ccccc3S(=O)(=O)C(C)C)n2)ccc1C(=O)NCCCCCC(=O)NO"
measured_endpoint = "inhibition"
reported_measurement = 93


What measured inhibition is associated with COc1cc(C(=O)NCCCCCC(=O)NO)ccc1Nc1ncc(Cl)c(Nc2ccccc2S(=O)(=O)C(C)C)n1 on Histone deacetylase 1 (Homo sapiens, UniProt Q13547)?
86

====

- TEST DESCRIPTION: Half life in Sprague-Dawley rat at 1 mg/kg, iv measured for 12 hrs by LC-MS/MS analysis
- Assay type: ADME, organism-based
- ASSAY SETUP: in vivo
MEASURED ENDPOINT: half-life (min)
Please give a number only; it is taken to be in min.

Would you mind telling me what half-life value was observed for CC(C)S(=O)(=O)c1ccccc1Nc1nc(Nc2ccc(NC(=O)CCCCCCC(=O)NO)cc2)ncc1Cl ?
25.2

====

Reported inhibition is given for each of the following compounds.
- MEASURED ON: UniProt Q9UM73
- TEST DESCRIPTION: Inhibition of ALK (unknown origin) at 100 nM preincubated for 10 mins followed by addition of substrate and ATP for 25 mins by caliper EZ reader method
- ASSAY SETUP: time 35.0 min
// unit must come after the numeric part

Worked cases, answers included:
[[record]]
compound_structure = "Cc1cc(C(=O)NCCCCCC(=O)NO)ccc1Nc1ncc(Cl)c(Nc2ccccc2S(=O)(=O)C(C)C)n1"
measured_on = "UniProt Q9UM73"
reported_measurement = "97.3%"

[[record]]
compound_structure = "CC(C)S(=O)(=O)c1ccccc1Nc1nc(Nc2cccc(C(=O)NCCCCCCC(=O)NO)c2)ncc1Cl"
measured_on = "UniProt Q9UM73"
reported_measurement = "96.6%"


Would you mind telling me what inhibition value was observed for CC(C)S(=O)(=O)c1ccccc1Nc1nc(Nc2ccc(C(=O)NCCCCCCC(=O)NO)cc2)ncc1Cl ?
103%

Would you mind telling me what inhibition value was observed for CC(C)S(=O)(=O)c1ccccc1Nc1nc(Nc2cccc(C(=O)NCCCC(=O)NO)c2)ncc1Cl ?
98%

Would you mind telling me what inhibition value was observed for COc1cccc(Nc2nc(Nc3ccc(NC(=O)CCCCCCC(=O)NO)cc3)ncc2C(F)(F)F)c1 ?
7.6%

====

Reported inhibition is given for each of the following compounds.
- MEASURED ON: Histone deacetylase 1 (Homo sapiens)
- ASSAY SETUP: Sf9, dose 10.0 nM, time 15.0 min

Would you mind telling me what inhibition value was observed for CC(C)S(=O)(=O)c1ccccc1Nc1nc(Nc2cccc(NC(=O)CCCCC(=O)NO)c2)ncc1Cl ?
10%

Would you mind telling me what inhibition value was observed for Cc1ccc(Nc2ncc(Cl)c(Nc3ccccc3S(=O)(=O)C(C)C)n2)cc1NC(=O)CCCCC(=O)NO ?
8%

Would you mind telling me what inhibition value was observed for CC(C)S(=O)(=O)c1ccccc1Nc1nc(Nc2ccc(C(=O)NCCC(=O)NO)cc2)ncc1Cl ?
-1%

Would you mind telling me what inhibition value was observed for COc1cccc(Nc2nc(Nc3ccc(NC(=O)CCCCCCC(=O)NO)cc3)ncc2Cl)c1 ?
83%

Would you mind telling me what inhibition value was observed for COc1cc(C(=O)NCCCCCC(=O)NO)ccc1Nc1ncc(Cl)c(Nc2ccccc2S(=O)(=O)C(C)C)n1 ?
45%

Would you mind telling me what inhibition value was observed for CC(C)S(=O)(=O)c1ccccc1Nc1nc(Nc2ccc(C(=O)NCCCCCC(=O)NO)cc2)ncc1Cl ?
55%

Would you mind telling me what inhibition value was observed for COc1ccc(Nc2nc(Nc3ccc(NC(=O)CCCCCCC(=O)NO)cc3)ncc2Cl)cc1OC ?
65%

Would you mind telling me what inhibition value was observed for Cc1ccc(Nc2nc(Nc3ccc(NC(=O)CCCCCCC(=O)NO)cc3)ncc2Cl)cc1 ?
86%

Would you mind telling me what inhibition value was observed for CC(C)S(=O)(=O)c1ccccc1Nc1nc(Nc2ccc(NC(=O)CCCCCCC(=O)NO)cc2)ncc1Cl ?
54%

====

- MEASURED ON: ALK tyrosine kinase receptor (Homo sapiens, UniProt Q9UM73)
- Sequence (Q9UM73 19-1620 limits assumed): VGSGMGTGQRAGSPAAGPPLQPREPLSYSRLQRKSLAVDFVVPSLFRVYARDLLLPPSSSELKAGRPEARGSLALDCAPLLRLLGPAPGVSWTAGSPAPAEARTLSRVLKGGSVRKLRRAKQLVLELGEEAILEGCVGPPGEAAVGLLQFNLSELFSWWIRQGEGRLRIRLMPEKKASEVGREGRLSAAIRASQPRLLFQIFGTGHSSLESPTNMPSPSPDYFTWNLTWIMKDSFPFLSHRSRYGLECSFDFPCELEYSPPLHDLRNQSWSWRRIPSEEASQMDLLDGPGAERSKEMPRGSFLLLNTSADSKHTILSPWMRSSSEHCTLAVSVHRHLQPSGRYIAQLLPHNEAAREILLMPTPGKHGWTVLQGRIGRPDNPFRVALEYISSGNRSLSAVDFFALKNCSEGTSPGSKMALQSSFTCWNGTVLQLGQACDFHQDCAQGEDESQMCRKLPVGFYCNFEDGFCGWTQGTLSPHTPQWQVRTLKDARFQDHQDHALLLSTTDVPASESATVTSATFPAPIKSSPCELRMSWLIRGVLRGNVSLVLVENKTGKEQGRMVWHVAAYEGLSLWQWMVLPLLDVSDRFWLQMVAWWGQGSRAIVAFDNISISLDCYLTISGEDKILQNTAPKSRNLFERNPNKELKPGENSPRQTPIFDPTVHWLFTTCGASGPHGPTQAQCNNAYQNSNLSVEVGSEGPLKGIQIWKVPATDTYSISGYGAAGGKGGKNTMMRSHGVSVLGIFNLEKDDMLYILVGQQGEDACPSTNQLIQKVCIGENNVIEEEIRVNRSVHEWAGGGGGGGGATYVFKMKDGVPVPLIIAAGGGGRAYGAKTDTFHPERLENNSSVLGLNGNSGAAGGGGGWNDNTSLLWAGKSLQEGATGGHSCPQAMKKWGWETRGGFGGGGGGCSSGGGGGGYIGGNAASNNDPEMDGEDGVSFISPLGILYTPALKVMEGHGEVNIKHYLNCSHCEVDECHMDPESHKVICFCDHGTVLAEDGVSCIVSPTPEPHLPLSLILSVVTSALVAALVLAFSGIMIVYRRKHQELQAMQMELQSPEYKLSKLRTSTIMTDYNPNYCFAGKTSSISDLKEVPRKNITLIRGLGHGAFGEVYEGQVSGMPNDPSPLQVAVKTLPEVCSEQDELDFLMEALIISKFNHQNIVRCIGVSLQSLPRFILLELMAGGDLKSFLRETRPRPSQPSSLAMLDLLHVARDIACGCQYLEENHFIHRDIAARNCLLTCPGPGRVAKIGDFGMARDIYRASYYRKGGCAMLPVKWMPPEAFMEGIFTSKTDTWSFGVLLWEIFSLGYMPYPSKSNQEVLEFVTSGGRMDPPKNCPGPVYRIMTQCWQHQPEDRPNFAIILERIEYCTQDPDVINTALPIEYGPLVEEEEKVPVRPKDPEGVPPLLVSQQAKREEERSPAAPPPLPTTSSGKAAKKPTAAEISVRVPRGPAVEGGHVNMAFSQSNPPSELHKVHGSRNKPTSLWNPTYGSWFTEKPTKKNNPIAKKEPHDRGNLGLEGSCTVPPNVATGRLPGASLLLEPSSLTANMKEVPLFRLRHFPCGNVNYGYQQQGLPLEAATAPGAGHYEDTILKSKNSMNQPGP
- TEST DESCRIPTION: Inhibition of ALK (unknown origin) at 10 nM preincubated for 10 mins followed by addition of substrate and ATP for 25 mins by caliper EZ reader method
- ASSAY SETUP: time 35.0 min
Reported inhibition is given for each of the following molecules.
Please give a number only; it is taken to be in %.

[[record]]
compound_structure = "CC(C)S(=O)(=O)c1ccccc1Nc1nc(Nc2cccc(NC(=O)CCCC(=O)NO)c2)ncc1Cl"
reported_measurement = 87

[[record]]
compound_structure = "COc1cc(Nc2ncc(Cl)c(Nc3ccccc3S(=O)(=O)C(C)C)n2)ccc1C(=O)NCCCCCC(=O)NO"
reported_measurement = 99

[[record]]
compound_structure = "CC(C)S(=O)(=O)c1ccccc1Nc1nc(Nc2ccc(NC(=O)CCCCC(=O)NO)cc2)ncc1Cl"
reported_measurement = 84.7

[[record]]
compound_structure = "CC(C)S(=O)(=O)c1ccccc1Nc1nc(Nc2cccc(C(=O)NCCC(=O)NO)c2)ncc1Cl"
reported_measurement = 81

[[record]]
compound_structure = "CC(C)S(=O)(=O)c1ccccc1Nc1nc(Nc2ccc(C(=O)NCCCCCC(=O)NO)cc2)ncc1Cl"
reported_measurement = 89.4

[[record]]
compound_structure = "CC(C)S(=O)(=O)c1ccccc1Nc1nc(Nc2ccc(NC(=O)CCCC(=O)NO)cc2)ncc1Cl"
reported_measurement = 87.6

[[record]]
compound_structure = "Cc1cc(Nc2ncc(Cl)c(Nc3ccccc3S(=O)(=O)C(C)C)n2)ccc1C(=O)NCCCCCC(=O)NO"
reported_measurement = 97.8

[[record]]
compound_structure = "Cc1cnc(Nc2ccc(NC(=O)CCCCCCC(=O)NO)cc2)nc1Nc1ccccc1S(=O)(=O)C(C)C"
reported_measurement = 83.5

[[record]]
compound_structure = "CC(C)S(=O)(=O)c1ccccc1Nc1nc(Nc2cccc(NC(=O)CCCCCC(=O)NO)c2)ncc1Cl"
reported_measurement = 89.4

[[record]]
compound_structure = "CC(C)S(=O)(=O)c1ccccc1Nc1nc(Nc2cccc(C(=O)NCCCCCCC(=O)NO)c2)ncc1Cl"
reported_measurement = 82.6


What measured inhibition is associated with CC(C)S(=O)(=O)c1ccccc1Nc1nc(Nc2cccc(C(=O)NCCCCCC(=O)NO)c2)ncc1Cl on ALK tyrosine kinase receptor (Homo sapiens, UniProt Q9UM73)?
83.2

What measured inhibition is associated with CC(C)S(=O)(=O)c1ccccc1Nc1nc(Nc2ccc(C(=O)NCCCCCCC(=O)NO)c(Cl)c2)ncc1Cl on ALK tyrosine kinase receptor (Homo sapiens, UniProt Q9UM73)?
70.3

What measured inhibition is associated with CC(C)S(=O)(=O)c1ccccc1Nc1nc(Nc2cccc(C(=O)NCCCC(=O)NO)c2)ncc1Cl on ALK tyrosine kinase receptor (Homo sapiens, UniProt Q9UM73)?
85.7

What measured inhibition is associated with CC(C)S(=O)(=O)c1ccccc1Nc1nc(Nc2ccc(C(=O)NO)cc2)ncc1Cl on ALK tyrosine kinase receptor (Homo sapiens, UniProt Q9UM73)?
81.1

What measured inhibition is associated with Cc1ccc(Nc2ncc(Cl)c(Nc3ccccc3S(=O)(=O)C(C)C)n2)cc1NC(=O)CCCCC(=O)NO on ALK tyrosine kinase receptor (Homo sapiens, UniProt Q9UM73)?
76.9

What measured inhibition is associated with CC(C)S(=O)(=O)c1ccccc1Nc1nc(Nc2ccc(C(=O)NCCCCCC(=O)NO)c(Cl)c2)ncc1Cl on ALK tyrosine kinase receptor (Homo sapiens, UniProt Q9UM73)?
87.7

====

- MEASURED ON: ALK tyrosine kinase receptor (Homo sapiens)
- TEST DESCRIPTION: Inhibition of ALK (unknown origin) at 100 nM preincubated for 10 mins followed by addition of substrate and ATP for 25 mins by caliper EZ reader method
- ASSAY SETUP: time 35.0 min
MEASURED ENDPOINT: inhibition

Worked cases, answers included:
[[record]]
compound_structure = "CC(C)S(=O)(=O)c1ccccc1Nc1nc(Nc2cccc(NC(=O)CCCCCC(=O)NO)c2)ncc1Cl"
reported_measurement = "98%"

[[record]]
compound_structure = "CC(C)S(=O)(=O)c1ccccc1Nc1nc(Nc2cccc(C(=O)NCCC(=O)NO)c2)ncc1Cl"
reported_measurement = "99.1%"

[[record]]
compound_structure = "COc1cnc(Nc2ccc(NC(=O)CCCCCCC(=O)NO)cc2)nc1Nc1ccccc1S(=O)(=O)C(C)C"
reported_measurement = "94.9%"

[[record]]
compound_structure = "Cc1cc(Nc2ncc(Cl)c(Nc3ccccc3S(=O)(=O)C(C)C)n2)ccc1C(=O)NCCCCCC(=O)NO"
reported_measurement = "102%"

[[record]]
compound_structure = "CC(C)S(=O)(=O)c1ccccc1Nc1nc(Nc2ccc(C(=O)NCCCCCC(=O)NO)cc2)ncc1Cl"
reported_measurement = "98.1%"

[[record]]
compound_structure = "Cc1ccc(Nc2nc(Nc3ccc(NC(=O)CCCCCCC(=O)NO)cc3)ncc2Cl)cc1"
reported_measurement = "30.1%"

[[record]]
compound_structure = "CC(C)S(=O)(=O)c1ccccc1Nc1nc(Nc2ccc(C(=O)NCCCC(=O)NO)cc2)ncc1Cl"
reported_measurement = "97.9%"

[[record]]
compound_structure = "CC(C)S(=O)(=O)c1ccccc1Nc1nc(Nc2ccc(C(=O)NCCCCC(=O)NO)cc2)ncc1Cl"
reported_measurement = "98.8%"


Would you mind telling me what inhibition value was observed for COc1cccc(Nc2nc(Nc3ccc(NC(=O)CCCCCCC(=O)NO)cc3)ncc2Cl)c1 ?
20%

Would you mind telling me what inhibition value was observed for CC(C)S(=O)(=O)c1ccccc1Nc1nc(Nc2ccc(NC(=O)CCCCC(=O)NO)cc2)ncc1Cl ?
99%

Would you mind telling me what inhibition value was observed for COc1cc(C(=O)NCCCCCC(=O)NO)ccc1Nc1ncc(Cl)c(Nc2ccccc2S(=O)(=O)C(C)C)n1 ?
98.5%
